test system: anesthetized normotensive dogs; test: renal dopamine-like activity by infusion in anesthetized normotensive dogs; format: in vivo; conditions: Canis lupus familiaris, iv; infusion, anesthetized normotensive dogs; read-out: ED15
Give measured ED15 for each item. Keep answers brief.
Answers are plain numbers, in µg/kg.

For orientation, consider the following solved cases.
CC(C)C(=O)Oc1ccc(C2CNCCc3c2cc(OC(=O)C(C)C)c(OC(=O)C(C)C)c3Cl)cc1 (stereo not drawn) :: 16
Oc1ccc(C2CNCCc3c2cc(O)c(O)c3Cl)cc1 (stereo not drawn) :: 0.3

Okay, here is my list. What is ED15 for each of these?
1. Oc1ccc(C2CNCCc3c2cc(O)c(O)c3I)cc1 (stereo not drawn)
2. COC(=O)c1c(O)c(O)cc2c1CCNCC2c1ccc(O)cc1 (stereo not drawn)

[4.2, 2.3]

Take each entry in turn and give its ED15.
1. Oc1ccc(C2CNCCc3c2cc(O)c(O)c3Br)cc1 (stereo not drawn)
2. Cc1c(O)c(O)c(Cl)c2c1CCNCC2c1ccc(O)cc1 (stereo not drawn)
3. Oc1ccc(C2CNCCc3c(Cl)c(O)c(O)c(Cl)c32)cc1 (stereo not drawn)
4. Oc1cccc(C2CNCCc3c2cc(O)c(O)c3Cl)c1 (stereo not drawn)
5. Cc1c(O)c(O)cc2c1CCNCC2c1ccc(O)cc1 (stereo not drawn)

[5, 30, 620, 0.35, 2.8]
